# TARGET_DESC: SCRIB_2, Q14160
# Sequence (Q14160 857-960): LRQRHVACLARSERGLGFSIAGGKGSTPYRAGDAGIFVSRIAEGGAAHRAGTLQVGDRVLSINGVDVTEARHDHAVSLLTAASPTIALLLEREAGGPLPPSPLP
# TEST_NAME: holdup assay
# Set-up: key: below the threshold = too weak to quantify, mostly under pKd 3.1 to 4
# SETTINGS: plain residues with an end cap or a label only (N-terminal biotin on a linker: ttds)
# maps each entry to its pKd
PARAMETER: pKd

KKYVDAETSL [SLC4A7, Q9Y6M7] ... 3.77
SSLQSLETSV [ATP2B4, P23634] ... 4.9
SKPTRRETEV [HPV35-E6, P27228] ... 4.7
RHTTSTETAV [HPV30-E6, P36809] ... 5.11

Values compiled from paper PMC9482650.
